assay overview: in vitro
protocol conditions: YFV CC50
Entries and their CC50

The following compounds have reported results that may help.
{"columns": ["substance smiles", "CC50"],
 "data": [
  ["Cc1cc(Nc2cccc(Cl)c2C)c2cccc(C)c2n1", "≥ 75 µM"],
  ["COC(=O)c1ccc(Nc2c3c(nc4ccccc24)CCC3)cc1", "≥ 75 µM"]
]}

Name the recorded CC50 of the compound listed here: CCOC(=O)c1cnc2ccc(OCC)cc2c1Nc1ccc(I)cc1
≥ 75 µM

----------
assay overview: in vitro
protocol conditions: WNV CC50
quantity measured: CC50

Name the recorded CC50 of the compound listed here: COc1ccc(Nc2cc(C)nc3c2ccc2ccccc23)cc1
≥ 75 µM

Name the recorded CC50 of the compound listed here: CCOC(=O)c1cnc2ccc(F)cc2c1Nc1ccc(S(=O)(=O)Nc2nc(C)cc(C)n2)cc1
≥ 75 µM

Name the recorded CC50 of the compound listed here: CCOC(=O)c1cnc2ccc(OCC)cc2c1Nc1ccc(I)cc1
≥ 75 µM

All values here come from patent US20090221624A1.
